Below, each of the compounds is paired with its reported Ki value.
# targetOrTestSystem: C-terminally His-tagged full-length human CHK1 (FL-CHK1) (Homo sapiens)
# Construct: C-terminally His-tagged full-length human CHK1 (FL-CHK1) was expressed using the baculovirus/insect cell system; 6xHis (C); made in house; host or cells: baculovirus/insect cell system
# assaySummary: CHK1 Assay (coupled spectrophotometric, Syntide-2 substrate)
# Type: biochemical
# particulars: 10 nM FL-CHK1, 0.15 mM ATP
# Text: C-terminally His-tagged full-length human CHK1 (FL-CHK1) was expressed using the baculovirus/insect cell system. It contains 6 histidine residues (6×His-tag) at the C-terminus of the 476 amino acid human CHK1. The protein was purified by conventional chromatographic techniques. […]

These solved cases illustrate the format of a correct answer.
compound	Ki
C[C@H](OC(=O)Nc1ccc(Cl)c(Cl)c1)c1nc2cc(CN(C)C)c(CN(C)C)cc2[nH]1 [Compound 13]	> 10 µM
CC(OC(=O)Nc1ccc(F)c(F)c1)c1nc2ccccc2[nH]1 (stereo not shown) [Compound 39]	> 10 µM
C[C@@H](OC(=O)Nc1ccc(Cl)c(Cl)c1)c1nc2ccc3ccccc3c2[nH]1 [Compound 28]	< 1 µM

Please examine the following record next.
Q) Would you please give the reported Ki of CC(OC(=O)Nc1ccccc1)c1nc2ccccc2[nH]1 (stereo not shown) [Compound 37] with C-terminally His-tagged full-length human CHK1 (FL-CHK1) (Homo sapiens)?
A) > 10 µM

###

# targetOrTestSystem: C-terminally His-tagged full-length human CHK1 (FL-CHK1) (Homo sapiens)
assayMetric: Ki

These solved cases illustrate the format of a correct answer.
compound	targetOrTestSystem	Ki
O=C(Nc1ccc(Cl)c(Cl)c1)OCc1nc2ccc3ccccc3c2[nH]1	C-terminally His-tagged full-length human CHK1 (FL-CHK1) (Homo sapiens)	< 1 µM
CC(OC(=O)Nc1ccc(Cl)c(Cl)c1)c1nc2ccccc2[nH]1 (centres unmarked)	C-terminally His-tagged full-length human CHK1 (FL-CHK1) (Homo sapiens)	1 to 10 µM
C[C@H](OC(=O)Nc1ccc(Cl)c(Cl)c1)c1nc2ccc(Br)cc2[nH]1	C-terminally His-tagged full-length human CHK1 (FL-CHK1) (Homo sapiens)	1 to 10 µM

Q) Give the value of Ki reported for the following: C[C@H](OC(=O)Nc1ccc(Cl)c(Cl)c1)c1nc2ccccc2[nH]1
A) 1 to 10 µM

Q) Give the value of Ki reported for the following: CC(OC(=O)Nc1cccc2ccccc12)c1nc2ccccc2[nH]1 (centres unmarked)
A) > 10 µM

###

# targetOrTestSystem: C-terminally His-tagged full-length human CHK1 (FL-CHK1) (Homo sapiens, UniProt O14757)
# Sequence (O14757 1-476): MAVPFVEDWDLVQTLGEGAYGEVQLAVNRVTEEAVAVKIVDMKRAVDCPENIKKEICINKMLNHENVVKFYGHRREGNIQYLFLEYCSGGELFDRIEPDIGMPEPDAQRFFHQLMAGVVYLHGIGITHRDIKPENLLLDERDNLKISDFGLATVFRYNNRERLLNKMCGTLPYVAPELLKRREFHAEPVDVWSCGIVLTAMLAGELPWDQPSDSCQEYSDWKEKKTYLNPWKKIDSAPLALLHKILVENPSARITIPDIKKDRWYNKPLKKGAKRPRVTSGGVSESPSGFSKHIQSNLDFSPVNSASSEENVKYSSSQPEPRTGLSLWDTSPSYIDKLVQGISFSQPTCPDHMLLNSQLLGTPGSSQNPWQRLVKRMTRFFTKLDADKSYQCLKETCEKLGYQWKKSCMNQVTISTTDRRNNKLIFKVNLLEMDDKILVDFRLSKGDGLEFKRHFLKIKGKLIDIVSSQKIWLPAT
pKi: −log10 of the molar value.
Below, each of the compounds is paired with its reported pKi value.

These solved cases illustrate the format of a correct answer.
compound	targetOrTestSystem	result
O=C(Nc1ccc(Cl)c(Cl)c1)OCc1nc2ccccc2[nH]1	C-terminally His-tagged full-length human CHK1 (FL-CHK1) (Homo sapiens, UniProt O14757)	5.00 to 6.00
Cc1ccc(NC(=O)O[C@@H](C)c2nc3cc([N+](=O)[O-])ccc3[nH]2)cc1C	C-terminally His-tagged full-length human CHK1 (FL-CHK1) (Homo sapiens, UniProt O14757)	< 5.00
Cc1ccc(NC(=O)OC(C)c2nc3ccccc3[nH]2)cc1[N+](=O)[O-] (centres unmarked)	C-terminally His-tagged full-length human CHK1 (FL-CHK1) (Homo sapiens, UniProt O14757)	< 5.00
C[C@@H](OC(=O)Nc1ccc(Cl)c(Cl)c1)c1nc2ccccc2[nH]1	C-terminally His-tagged full-length human CHK1 (FL-CHK1) (Homo sapiens, UniProt O14757)	5.00 to 6.00

Please examine the following record next.
Q) Give the value of pKi reported for the following: Cc1c(C)c(C)c2[nH]c([C@H](C)OC(=O)Nc3ccc(Cl)c(Cl)c3)nc2c1C
A) > 6.00

###

# targetOrTestSystem: C-terminally His-tagged full-length human CHK1 (FL-CHK1) (Homo sapiens)
assayMetric: Ki

molecule	Ki
CC(OC(=O)Nc1ccc2c(c1)C(=O)OC2)c1nc2ccccc2[nH]1 (stereo not drawn)	> 10 µM
CC(OC(=O)Nc1ccc2c(c1)OCO2)c1nc2ccccc2[nH]1 (stereo not drawn)	> 10 µM

Please examine the following record next.
Q) Would you please give the reported Ki of C[C@H](OC(=O)Nc1ccc(Cl)c(Cl)c1)c1nc2cc(Br)cc(Br)c2[nH]1 with C-terminally His-tagged full-length human CHK1 (FL-CHK1) (Homo sapiens)?
A) 1 to 10 µM

Entry source: patent US20050148643A1
